Give human MASP2 IC50 for every item shown.
- Target Or Test System: recombinant human MASP2 active protease (amino acids 297-686, C-terminal His Tag) (human, UniProt O00187 297-686)
- Sequence (O00187 other isoform, or with tags, fused parts or gaps limits assumed): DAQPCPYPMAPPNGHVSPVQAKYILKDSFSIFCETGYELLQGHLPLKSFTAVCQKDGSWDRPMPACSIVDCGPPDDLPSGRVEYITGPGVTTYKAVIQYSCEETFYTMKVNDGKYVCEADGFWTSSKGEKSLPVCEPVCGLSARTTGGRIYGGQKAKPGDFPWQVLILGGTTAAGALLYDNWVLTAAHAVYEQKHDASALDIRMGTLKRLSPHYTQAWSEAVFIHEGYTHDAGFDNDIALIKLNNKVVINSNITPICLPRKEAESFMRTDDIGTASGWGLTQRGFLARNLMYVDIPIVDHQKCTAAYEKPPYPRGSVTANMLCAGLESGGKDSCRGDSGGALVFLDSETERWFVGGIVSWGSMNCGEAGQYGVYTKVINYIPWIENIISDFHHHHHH
- Assay Summary: cell-based or functional assay
Numbered stars: 1 amine (or outer) side, 2 acyl side, 3 side chain; on linkers, the order of the positions; unused ones are H or OH. Bridge positions count the residues as written; N and C are the ends. Square brackets hold non-standard residues; d marks the D form. Primed or numbered codes have the meaning given here. Ends that are not written are not given here. TTDS(3) = 1,13-Diamino-4,7,10-trioxatridecan-succinamic acid; cPrCO(1-aminomethyl) = O=C(C1(CN[*:1])CC1)[*:2]; Oic = O=C(O)[C@@H]1C[C@@H]2CCCC[C@@H]2N1; PEG6 = NCCOCCOCCOCCOCCOCCOCCC(=O)O; NMeI = CC[C@H](C)[C@H](NC)C(=O)O; tBuAla = CC(C)(C)C[C@H](N)C(=O)O; Pen = CC(C)(S)[C@H](N)C(=O)O; NMeC = CN[C@@H](CS)C(=O)O; Sar = CNCC(=O)O
Reply with just the number (in nM).

// query What value of human MASP2 IC50 has been reported for the following binder? [Sar]ICSRS[tBuAla]PPI[Pen]IP-{TTDS(3)-NH2} (disulfide 3-11) [((N-Me)G)-IC+SRS-((tBu)A)-PPI-(Pen)+IP-(TTDS)-NH2]
// result 58

// query Check [Sar]ICSRSLP[Oic]I[Pen]IP[PEG6]-NH2 (disulfide 3-11; N-terminus assumed; SMILES CC[C@H](C)[C@H](NC(=O)CNC)C(=O)N[C@H]1CSSC(C)(C)[C@@H](C(=O)N[C@H](C(=O)N2CCC[C@H]2C(=O)NCCOCCOCCOCCOCCOCCOCCC(N)=O)[C@@H](C)CC)NC(=O)[C@H]([C@@H](C)CC)NC(=O)[C@@H]2C[C@@H]3CCCC[C@@H]3N2C(=O)[C@@H]2CCCN2C(=O)[C@H](CC(C)C)NC(=O)[C@H](CO)NC(=O)[C@H](CCCNC(=N)N)NC(=O)[C@H](CO)NC1=O) [((N-Me)G)-IC+SRSLP-(Oic)-I-(Pen)+IP-(PEG5(22 atoms))-NH2] too.
// result 90

// query Check RICSRS[tBuAla]PPI[NMeC]I-NH2 (disulfide 3-11; N-terminus assumed; SMILES CC[C@H](C)[C@H](NC(=O)[C@@H]1CSSC[C@H](NC(=O)[C@@H](NC(=O)[C@@H](N)CCCNC(=N)N)[C@@H](C)CC)C(=O)N[C@@H](CO)C(=O)N[C@@H](CCCNC(=N)N)C(=O)N[C@@H](CO)C(=O)N[C@@H](CC(C)(C)C)C(=O)N2CCC[C@H]2C(=O)N2CCC[C@H]2C(=O)N[C@@H]([C@@H](C)CC)C(=O)N1C)C(N)=O) [RIC+SRS-((tBu)A)-PPI-((N-Me)C)+I-NH2] too.
// result 87

// query Check [cPrCO(1-aminomethyl)]ICSRS[tBuAla]PPI[NMeC]I-NH2 (disulfide 3-11; N-terminus assumed; SMILES CC[C@H](C)[C@H](NC(=O)[C@@H]1CSSC[C@H](NC(=O)[C@@H](NC(=O)C2(CN)CC2)[C@@H](C)CC)C(=O)N[C@@H](CO)C(=O)N[C@@H](CCCNC(=N)N)C(=O)N[C@@H](CO)C(=O)N[C@@H](CC(C)(C)C)C(=O)N2CCC[C@H]2C(=O)N2CCC[C@H]2C(=O)N[C@@H]([C@@H](C)CC)C(=O)N1C)C(N)=O) [(ACMP)-IC+SRS-((tBu)A)-PPI-((N-Me)C)+I-NH2] too.
// result 360

// query Check A[NMeI]CSRS[tBuAla]PPI[NMeC]IPD-NH2 (disulfide 3-11; N-terminus assumed; SMILES CC[C@H](C)[C@@H]1NC(=O)[C@@H]2CCCN2C(=O)[C@@H]2CCCN2C(=O)[C@H](CC(C)(C)C)NC(=O)[C@H](CO)NC(=O)[C@H](CCCNC(=N)N)NC(=O)[C@H](CO)NC(=O)[C@@H](NC(=O)[C@H]([C@@H](C)CC)N(C)C(=O)[C@H](C)N)CSSC[C@@H](C(=O)N[C@H](C(=O)N2CCC[C@H]2C(=O)N[C@@H](CC(=O)O)C(N)=O)[C@@H](C)CC)N(C)C1=O) [A-((N-Me)I)-C+SRS-((tBu)A)-PPI-((N-Me)C)+IPD-NH2] too.
// result 620

These measurements were taken from patent US20210246166A1.
